Tested on: mexB (PA) strain
assay-summary: Combinational effect with antibacterial agent against Pseudomonas aeruginosa (Test Examples 2 and 4): mexB (PA) strain with LVFX, TC or AZT at 1/4 MIC, EC99
Format: cell-based
condition-set: mexB (PA) strain; combined with AZT at 1/4 MIC; Test Example 4
measurement-kind: EC99, combinational effect with AZT, mexB (PA)

Exam item: I am curious: what EC99, combinational effect with AZT, mexB (PA) value has been reported for CSc1ccccc1CN1CCN(C(=O)[C@H](N)C2CCN(CCc3cc(Cl)ccc3-c3cccc(O)c3)CC2)CC1 [Example 611] ?
Marked response: S (EC99≤12.5 μM)

Exam item: Recorded EC99, combinational effect with AZT, mexB (PA) for CSc1ccc(O)cc1CN1CCN(C(=O)[C@H](N)C2CCN(CCc3cc(Cl)ccc3-c3ccccc3)CC2)CC1 [Example 587] , please?
Marked response: S (EC99≤12.5 μM)

Exam item: Query (compound): N[C@@H](C(=O)N1CCN(Cc2ccccc2C(F)(F)F)CC1)C1CCN(CCc2cc(Cl)ccc2-c2ccccc2)CC1 [Example 510] ; field requested: EC99, combinational effect with AZT, mexB (PA)
Marked response: B (25 μM<EC99≤100 μM)

Exam item: Which measured EC99, combinational effect with AZT, mexB (PA) value corresponds to N[C@@H](C(=O)N1CCN(CC2CCCCC2)CC1)C1CCN(CCc2cc(Cl)ccc2-c2ccccc2)CC1 [Example 526] ?
Marked response: B (25 μM<EC99≤100 μM)

Exam item: Quick check: EC99, combinational effect with AZT, mexB (PA) of CSc1ccccc1CN1CCN(C(=O)[C@H](N)C2CCN(CCc3cc(Cl)ccc3-c3cc(N)cc(F)c3)CC2)CC1 [Example 564] ?
Marked response: S (EC99≤12.5 μM)

Next:
Exam item: EC99, combinational effect with AZT, mexB (PA) lookup needed for CCOc1cccc(F)c1CN1CCN(C(=O)[C@H](N)C2CCN(CCc3cc(-c4ccccc4)ccc3Cl)CC2)CC1 [Example 566] , thanks.
Marked response: B (25 μM<EC99≤100 μM)

Exam item: Find the recorded EC99, combinational effect with AZT, mexB (PA) belonging to CCSc1cc(F)ccc1CN1CCN(C(=O)[C@H](N)C2CCN(CCc3cc(Cl)ccc3C3=CCNCC3)CC2)CC1 [Example 597] and report it.
Marked response: B (25 μM<EC99≤100 μM)

---

Test system: mexB (EC) strain
assay-summary: Efflux ability inhibition effect on drug efflux pump MexB (Test Examples 1 and 3): proliferation (OD595) of mexB (EC) strain with EM or LVFX at 1/4 MIC, EC75
Format: cell-based, Escherichia coli
condition-set: Table 51, Test Example 1; combined with EM at 1/4 MIC; 16 to 20 hours culture, OD595
measurement-kind: EC75, mexB (EC) strain, EM

// solved cases for EC75, mexB (EC) strain, EM follow
Exam item: Look at this compound and give its reported EC75, mexB (EC) strain, EM. CCOc1cccc(/C=C/C#N)c1CN1CCN(C(=O)[C@H](N)C2CCN(CCc3ccccc3)CC2)CC1
Marked response: B (25 μM<EC75≤100 μM)

Exam item: Return reported EC75, mexB (EC) strain, EM; argument: COc1ccccc1CN1CCN(C(=O)CN2CCC(CN)(CCc3ccccc3)CC2)CC1
Marked response: A (12.5 μM<EC75≤25 μM)

Exam item: So what's the measured EC75, mexB (EC) strain, EM for this one? CCOc1cccc(F)c1CN1CCN(C(=O)[C@H](N)C2CCN(CC(F)(F)c3ccccc3)CC2)CC1
Marked response: B (25 μM<EC75≤100 μM)

Exam item: Name the recorded EC75, mexB (EC) strain, EM for O=C(CN1CCN(CCc2ccccc2)CC1)N1CCN(Cc2sccc2Cl)CC1 .
Marked response: A (12.5 μM<EC75≤25 μM)

Exam item: Looking for the measured EC75, mexB (EC) strain, EM of COCCOc1cccc(F)c1CN1CCN(C(=O)[C@H](N)C2CCN(CCc3ccccc3)CC2)CC1 , can you help?
Marked response: A (12.5 μM<EC75≤25 μM)

Others:
Exam item: For the compound shown here, CCOc1cccc(F)c1CN1CCN(C(=O)[C@H](N)C2CCN(CCc3cccc(O)c3)CC2)CC1 , give the reported EC75, mexB (EC) strain, EM.
Marked response: B (25 μM<EC75≤100 μM)

Exam item: For COc1ccccc1CN1CCN(C(=O)CC2CCN(CCc3ccccc3)CC2)CC1 , what is its reported EC75, mexB (EC) strain, EM?
Marked response: A (12.5 μM<EC75≤25 μM)

Exam item: Form field: reported EC75, mexB (EC) strain, EM of COc1ccccc1CN1CCN(C(=O)[C@@H](N)C2CCN(CCc3ccccc3)CC2)CC1
Marked response: B (25 μM<EC75≤100 μM)
